Target chain: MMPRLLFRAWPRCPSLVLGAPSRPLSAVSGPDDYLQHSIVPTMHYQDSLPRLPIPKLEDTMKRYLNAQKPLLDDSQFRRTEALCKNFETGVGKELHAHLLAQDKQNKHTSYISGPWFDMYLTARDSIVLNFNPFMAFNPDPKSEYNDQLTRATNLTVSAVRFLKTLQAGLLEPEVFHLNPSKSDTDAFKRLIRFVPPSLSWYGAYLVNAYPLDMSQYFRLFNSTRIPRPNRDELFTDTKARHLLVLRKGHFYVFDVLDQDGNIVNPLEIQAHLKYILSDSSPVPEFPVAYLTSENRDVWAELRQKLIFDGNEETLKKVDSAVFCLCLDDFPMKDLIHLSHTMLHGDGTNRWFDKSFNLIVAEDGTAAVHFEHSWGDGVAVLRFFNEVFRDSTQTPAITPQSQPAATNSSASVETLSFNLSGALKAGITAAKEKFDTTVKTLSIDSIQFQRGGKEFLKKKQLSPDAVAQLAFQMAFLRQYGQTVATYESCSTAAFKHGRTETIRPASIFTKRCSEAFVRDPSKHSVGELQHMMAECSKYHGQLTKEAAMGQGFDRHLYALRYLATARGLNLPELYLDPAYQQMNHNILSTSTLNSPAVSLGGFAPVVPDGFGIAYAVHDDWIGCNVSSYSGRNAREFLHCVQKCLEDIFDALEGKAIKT
Parameter: IC50. Scope: all listed entries.
# value in µM; strip the unit string

Example cases with answers are listed next.
[ask] Could you tell me which IC50 is on file for COC(=O)[C@H]1CCCC[C@@H]1c1nc([C@H]2CCCCN2C(=O)COc2ccccc2)no1 ?
[reply] 85.5

[ask] GET /values?readout=IC50&item= COc1ccc(C)cc1S(=O)(=O)n1ccc2ccc(C(=O)Nc3ccc(C(=O)O)cc3)cc21
[reply] 2.67

Lab note: next compound to report on.
[ask] Can you share its IC50? I mean this compound: CC(C)C(=O)Nc1cccc(-c2n[nH]c([C@H]3CCCCN3C(=O)COc3ccccc3)n2)c1
[reply] 24.1

Source listed as ChEMBL document CHEMBL3431459.
